Reported IC50 values for a set of molecules
- experimental target: UniProt P56817
- Sequence (P56817 46-501): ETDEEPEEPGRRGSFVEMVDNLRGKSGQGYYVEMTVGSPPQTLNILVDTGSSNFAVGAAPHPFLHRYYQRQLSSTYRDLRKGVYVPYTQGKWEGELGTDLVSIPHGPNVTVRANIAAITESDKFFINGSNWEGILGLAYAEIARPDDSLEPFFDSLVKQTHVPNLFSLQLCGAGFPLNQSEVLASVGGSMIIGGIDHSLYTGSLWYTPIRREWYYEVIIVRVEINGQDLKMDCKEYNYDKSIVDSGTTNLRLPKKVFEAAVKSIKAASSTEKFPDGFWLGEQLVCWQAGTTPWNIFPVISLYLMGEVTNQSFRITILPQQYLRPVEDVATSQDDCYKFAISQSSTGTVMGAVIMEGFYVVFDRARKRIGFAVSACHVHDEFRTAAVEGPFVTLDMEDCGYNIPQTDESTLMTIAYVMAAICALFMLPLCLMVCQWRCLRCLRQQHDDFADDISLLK
- measurement notes: Fluorescent kinetic assay, human BACE1 (FRET peptide substrate WABC-6);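 also: fluorescence monitored at excitation 320 nm and emission 420 nm over 30 min, with the substrate cleavage rate taken as the linear slope of the signal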
- Type: biochemical
- experimental parameters: fluorescent kinetic assay, 25 μM substrate WABC-6, pH 4.5, room temperature; read-out: IC50 (μM) BACE 1

Lab book: IC50 of CCCCCN/C(N)=N\C(=O)Cn1c(-c2ccccc2)ccc1C12CC3CC(CC(C3)C1)C2 [Example 392] noted as 1.1 to 5 µM

Noted for C=CCCCCOc1ccc(-c2ccc(-c3ccccc3Cl)n2CC(=O)N=C(N)NCCCO)cc1 [Example 315] : its IC50 reads 0.11 to 1 µM

So, CCC[C@H]1CC[C@H](c2ccc(-c3ccccc3)n2CC(=O)/N=C(\N)NCCCC#N)CC1 [Example 473] ? Its IC50 was 1.1 to 5 µM

Record summary for Cc1ccc(-c2ccc(-c3ccc(Cl)s3)n2CC(=O)N=C(N)N)cc1 [Example 110] : reported IC50 = 1.1 to 5 µM

Further cases:
// IC50 value for CCCCCOc1ccc(-c2ccc(-c3ccccc3Cl)n2CC(=O)/N=C(/N)NCCCO)cc1 [Example 317] : 0.11 to 1 µM

The value of IC50 measured for the molecule NC(=NC(=O)Cn1c(-c2ccccc2)ccc1-c1ccc(Oc2ccccc2)cc1)NCc1ccc(F)c(F)c1F [Example 337] turned out to be 0.11 to 1 µM

The recorded IC50 for entry COc1cccc(-c2ccc(-c3ccc4ccccc4c3)n2CC(=O)N=C(N)N)c1 [Example 147] equals 1.1 to 5 µM
